Target or system TBNAT (Mycobacterium tuberculosis); recorded quantity IC50.
# value in µM; strip the unit string

// known answers, use as guide
CCN1CCC(O)(c2ccccc2)C(C(=O)c2ccccc2)C1 (stereo not drawn) [Compound 4] | 7.3
CCN1CCC(O)(c2ccc(F)cc2)C(C(=O)c2ccc(F)cc2)C1 (stereo not drawn) [Compound 5] | 4.4

// assay TBNAT (Mycobacterium tuberculosis), entry OC(CCN1CCCCC1)c1ccc2c(c1)OCO2 (stereo not drawn) [Compound 15] , IC50 value = 20

// assay TBNAT (Mycobacterium tuberculosis), entry CN1CCC(O)(c2ccc(Br)cc2)C(C(=O)c2ccc(Br)cc2)C1 (stereo not drawn) [Compound 3] , IC50 value = 2.9

// assay TBNAT (Mycobacterium tuberculosis), entry CCCCN1CCC(O)(c2ccccc2)C(C(=O)c2ccccc2)C1 (stereo not drawn) [Compound 6] , IC50 value = 6.9

// assay TBNAT (Mycobacterium tuberculosis), entry CN1CCC(O)(c2ccc(Cl)cc2)C(C(=O)c2ccc(Cl)cc2)C1 (stereo not drawn) [Compound 2] , IC50 value = 1.6

* * *

# SUBJECT OF TEST: MMNAT (Mycobacterium marinum)
# Sequence (B2HIZ6 entry or part of it): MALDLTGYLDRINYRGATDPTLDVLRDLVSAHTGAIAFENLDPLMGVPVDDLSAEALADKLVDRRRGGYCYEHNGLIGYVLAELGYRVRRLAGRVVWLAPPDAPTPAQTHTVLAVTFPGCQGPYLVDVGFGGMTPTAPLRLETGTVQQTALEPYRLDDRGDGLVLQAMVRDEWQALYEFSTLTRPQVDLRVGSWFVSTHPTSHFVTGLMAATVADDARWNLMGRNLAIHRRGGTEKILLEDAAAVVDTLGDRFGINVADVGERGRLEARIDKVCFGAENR
# TEST SUMMARY: Time-dependent (irreversible) inactivation of MMNAT by the piperidinols
# Format: biochemical
# RUN PARAMETERS: inhibitor 11.9 μM; t1/2 = 0.693/kobs
Param threshold (50 min) applies to t1/2, apparent inactivation half-life; output YES when value >= threshold, NO when value < threshold.

Study these solved cases before continuing.
O=C(c1ccccc1)C1CN(Cc2ccccc2)CCC1(O)c1ccccc1 (stereo not shown) [Compound 8] | YES
CCN1CCC(O)(c2ccccc2)C(C(=O)c2ccccc2)C1 (stereo not shown) [Compound 4] | NO
O=C(c1ccccc1)C1CN(C2CCCO2)CCC1(O)c1ccccc1 (stereo not shown) [Compound 9] | NO
CCCCN1CCC(O)(c2ccccc2)C(C(=O)c2ccccc2)C1 (stereo not shown) [Compound 6] | NO
CN1CCC(O)(c2ccccc2)C(C(=O)c2ccccc2)C1 (stereo not shown) [Compound 1] | YES
CN1CCC(O)(c2ccc(Cl)cc2)C(C(=O)c2ccc(Cl)cc2)C1 (stereo not shown) [Compound 2] | NO

Field: next compound
Enquiry: Given CN1CCC(O)(c2ccc(Br)cc2)C(C(=O)c2ccc(Br)cc2)C1 (stereo not shown) [Compound 3] , state whether its t1/2, apparent inactivation half-life is at least 50 min.
Return: NO

* * *

# SUBJECT OF TEST: TBNAT (Mycobacterium tuberculosis, UniProt P9WJI5)
# Construct: made in house
# Sequence (P9WJI5 whole entry): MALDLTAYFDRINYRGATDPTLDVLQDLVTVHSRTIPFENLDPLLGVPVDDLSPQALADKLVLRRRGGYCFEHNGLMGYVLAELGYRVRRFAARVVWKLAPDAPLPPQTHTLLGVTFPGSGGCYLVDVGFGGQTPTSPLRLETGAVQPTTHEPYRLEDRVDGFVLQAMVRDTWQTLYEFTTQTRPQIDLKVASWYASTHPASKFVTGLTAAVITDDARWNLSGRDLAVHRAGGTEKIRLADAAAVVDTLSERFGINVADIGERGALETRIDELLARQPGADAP
# TEST SUMMARY: NAT inhibition assay (CoA formation), TBNAT
# Format: biochemical, M. tuberculosis
# RUN PARAMETERS: 50 μM inhibitor; 150 μM HLZ and 120 μM Ac-CoA; mean ± S.D. of triplicate; read-out: TBNAT % Inhibition
READOUT NAME: inhibition at 50 µM (%)
# value in %; strip the unit string

// known answers, use as guide
CCN1CCC(O)(c2ccc(F)cc2)C(C(=O)c2ccc(F)cc2)C1 (centres unmarked) | 108
CCCCN1CCC(O)(c2ccccc2)C(C(=O)c2ccccc2)C1 (centres unmarked) | 100
O=C(c1ccccc1)C1CN(Cc2ccccc2)CCC1(O)c1ccccc1 (centres unmarked) | 58
O=C(c1ccccc1)C1CN(C2CCCO2)CCC1(O)c1ccccc1 (centres unmarked) | 51
O=C(c1ccccc1)C1CN(C2CCS(=O)(=O)C2)CCC1(O)c1ccccc1 (centres unmarked) | 47
CCN1CCC(O)(c2ccccc2)C(C(=O)c2ccccc2)C1 (centres unmarked) | 72

// sample CN1CCC(O)(c2ccc(Br)cc2)C(C(=O)c2ccc(Br)cc2)C1 (centres unmarked) , its inhibition at 50 µM was 98

// sample CN1CCC(O)(c2ccc(Cl)cc2)C(C(=O)c2ccc(Cl)cc2)C1 (centres unmarked) , its inhibition at 50 µM was 98
